# Test system: Human immunodeficiency virus 1
# ASSAY TEXT: Antiviral activity against HIV-1 infected human MT-4 cells.
# Type: functional, organism-based
# TEST SETTINGS: Human immunodeficiency virus 1, MT4
pIC50: −log10 of the molar value.
# pIC50 values compiled below

COMPOUND: N#Cc1c(N)cccc1S(=O)(=O)c1ccccc1
pIC50: 5.70
--
COMPOUND: N#Cc1ccccc1[S+]([O-])c1cccc(N)c1C#N (stereo not drawn)
pIC50: 5.41
--
COMPOUND: N#Cc1c(N)cccc1Sc1cccc(F)c1
pIC50: 5.01

###

# System: Human immunodeficiency virus 1
# ASSAY TEXT: Antiviral activity against HIV-1 infected human MT-4 cells.
# Assay type: functional, organism-based
# TEST SETTINGS: Human immunodeficiency virus 1, MT4
pIC50: −log10 of the molar value.
1.0 means recorded pIC50 is 5 or above; 0.0 means it is below 5.

MOLECULE: Nc1cccc(S(=O)(=O)c2ccccc2)c1
CLASSIFICATION: 0.0
//
MOLECULE: COc1cc(C)cc(S(=O)(=O)c2cccc(N)c2C#N)c1
CLASSIFICATION: 1.0
//
MOLECULE: N#Cc1c(N)cccc1[S+]([O-])c1cccc(C(F)(F)F)c1 (stereo unspecified)
CLASSIFICATION: 0.0
//
MOLECULE: N#Cc1cccc(Sc2cccc(N)c2C#N)c1
CLASSIFICATION: 1.0
//
MOLECULE: N#Cc1ccc([S+]([O-])c2cccc(N)c2C#N)cc1 (stereo unspecified)
CLASSIFICATION: 0.0
//
MOLECULE: Cc1cc(C)cc(S(=O)(=O)c2cccc(F)c2C#N)c1
CLASSIFICATION: 1.0
//
MOLECULE: N#Cc1c(N)cccc1[S+]([O-])c1ccc(Br)cc1 (stereo unspecified)
CLASSIFICATION: 0.0
//
MOLECULE: N#Cc1c(N)cccc1S(=O)(=O)c1cccc(Br)c1
CLASSIFICATION: 1.0
//
MOLECULE: N#Cc1c(N)cccc1Sc1ccccc1Cl
CLASSIFICATION: 1.0
//
MOLECULE: COc1ccccc1S(=O)(=O)c1cccc(N)c1C#N
CLASSIFICATION: 1.0
//
MOLECULE: N#Cc1cccc(S(=O)(=O)c2cccc(N)c2C#N)c1
CLASSIFICATION: 1.0
//
MOLECULE: Cc1cc(Br)cc(S(=O)(=O)c2cccc(N)c2C#N)c1
CLASSIFICATION: 1.0
//
MOLECULE: N#Cc1c(N)cccc1S(=O)(=O)c1ccc(Cl)cc1
CLASSIFICATION: 1.0
//
MOLECULE: N#Cc1c(N)cccc1Sc1cccc(N)c1
CLASSIFICATION: 0.0
//
MOLECULE: N#Cc1c(N)cccc1S(=O)(=O)c1cccc(Cl)c1
CLASSIFICATION: 1.0
//
MOLECULE: Cc1cc(Cl)cc([S+]([O-])c2cccc(N)c2C#N)c1 (stereo unspecified)
CLASSIFICATION: 1.0
//
MOLECULE: N#Cc1c(N)cccc1S(=O)(=O)c1cccc(C(F)(F)F)c1
CLASSIFICATION: 1.0
//
MOLECULE: COc1ccc([S+]([O-])c2cccc(N)c2C#N)cc1 (stereo unspecified)
CLASSIFICATION: 0.0
//
MOLECULE: N#Cc1c(N)cccc1Sc1ccccc1Br
CLASSIFICATION: 0.0
//
MOLECULE: COc1cc(C)cc(S(=O)(=O)c2cccc(F)c2C#N)c1
CLASSIFICATION: 0.0
//
MOLECULE: Cc1cccc(Sc2cccc(N)c2C#N)c1
CLASSIFICATION: 1.0
//
MOLECULE: N#Cc1c(N)cccc1S(=O)(=O)c1ccc(Br)cc1
CLASSIFICATION: 0.0
//
MOLECULE: N#Cc1c(N)cccc1S(=O)(=O)c1ccc2ccccc2c1
CLASSIFICATION: 1.0
